All figures here come from paper PMC8809517.

assaySystem: T1, GFP-9S library array, motif 4 ND N98H;D124T (synthetic construct, N98H;D124T)
T1 chain: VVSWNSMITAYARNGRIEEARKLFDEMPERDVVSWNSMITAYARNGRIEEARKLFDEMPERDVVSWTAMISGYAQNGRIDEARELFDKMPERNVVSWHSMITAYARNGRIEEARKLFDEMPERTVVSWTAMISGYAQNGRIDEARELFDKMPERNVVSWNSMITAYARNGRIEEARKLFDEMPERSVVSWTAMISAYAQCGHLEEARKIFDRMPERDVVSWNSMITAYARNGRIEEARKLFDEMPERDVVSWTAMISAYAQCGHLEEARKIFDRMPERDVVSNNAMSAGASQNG
measurementDescription: high-throughput RNA pulldown from lysate on Ni-NTA beads; HRP: 50 mM Tris pH 8, 150 mM NaCl, 1 mM beta-mercaptoethanol, 50 ug/ml BSA, 3 ug/ml yeast RNA, 0.5% heparin; ITC and FP: Tris pH 8, 200 mM KCl, 5% glycerol; MST: 50 mM Tris pH 8, 200 mM NaCl, 1 mM DTT, BSA, heparin, 0.05% Tween 20
cond: tags: N-terminal His-eGFP; label: 5' IRDye 800CW
propertyName: Kd (nM)
# output: bare number, implied unit nM

What does the data say about its Kd? Entry: AUUAAACGUGA (ssRNA) [IR-rpoA-A]
103

Please do the same for AUUAUACGUGA (ssRNA) [IR-rpoA-U] as well.
24.9
